# maps each entry to its melting point

So what's the measured melting point for this one? CCCCCCCCc1c2[n+](cc3c(OCCCCCCN4CCCC4)c(OC)ccc13)CCc1cc3c(cc1-2)OCO3.[Br-] [Compound 6e]
126 to 128 °C

# melting point lookup, item CCCCCCCCc1c2[n+](cc3c(OCCCCCCN(CC)CC)c(OC)ccc13)CCc1cc3c(cc1-2)OCO3.[Br-] [Compound 6d]
149 to 151 °C

###

experiment: LWP coefficient (log D) measurement, shake flask; type: physicochemical; settings: 1-octanol/phosphate buffer (PBS); 1-octanol/PBS pH 7.4, shake flask, 37 °C; read-out: Log D
measured parameter: logD
Respond using a number only.

Record request: logD value, item COc1ccc2cc3[n+](cc2c1OC)CCc1cc2c(cc1-3)OCO2 [Berberine]
-0.98
